Tested on: barnyardgrass (Echinochloa crus-galli)
Test: Test C flooded paddy test
Format: in vivo
Conditions: Flooded Paddy; Rate 250 g/ha; scale 0 to 100, 0 no effect, 100 complete control
measure: Barnyardgrass plant response rating

> print(dat)
                                   compound  recorded.number
1  CCC(C)Oc1ccn(C2CCN(c3cccc(C(F)(F)F)c3)C2=O)n1 (stereo not shown) [Compound 58]                0
2  CCC(CC)c1ccn(C2CCN(c3ccc(Cl)c(OC)c3)C2=O)n1 (stereo not shown) [Compound 118]              100
3  O=C1C(n2ccc(C3CCC3)n2)SCN1c1cccc(OC(F)(F)F)c1 (stereo not shown) [Compound 38]              100
4  CC(C)(C)c1ccn(C2CCN(c3ccc(F)c(Cl)c3)C2=O)n1 (stereo not shown) [Compound 46]               50
5  O=C1C(n2ccc(C3CC3)n2)CCN1c1cccc(C(F)(F)F)c1 (stereo not shown) [Compound 8]               40
6  CCC(C)Oc1cccc(N2CCC(n3ccc(C(C)(C)C)n3)C2=O)c1 (stereo not shown) [Compound 127]               20
7  COc1cc(N2CCC(n3ccc(C(C)(C)C)n3)C2=O)ccc1C (stereo not shown) [Compound 42]              100

---

Test system: Surinam grass (Brachiaria decumbens)
Assay: Test C preemergence
Assay type: in vivo
Details: preemergence, Rate 250 g/ha, visual evaluation after 12 to 14 days
measure: Plant response rating (0 to 100), Surinam grass

> print(dat)
                                   molecule                         target.system  recorded.number
1  Cc1ccc(N2CCC(n3ccc(C(C)(C)C)n3)C2=O)cc1OC(F)F (stereo not drawn)  Surinam grass (Brachiaria decumbens)               60
2  CC(C)c1ccn(C2SCN(c3cccc(OC(F)(F)F)c3)C2=O)n1 (stereo not drawn)  Surinam grass (Brachiaria decumbens)               60
3  O=C1C(n2ccc(C3CC3)n2)OCN1c1cccc(C(F)(F)F)c1 (stereo not drawn)  Surinam grass (Brachiaria decumbens)               60

---

System: lambsquarters (Chenopodium album)
Assay: Test B preemergence
Format: in vivo
Settings: preemergence; Rate 125 g/ha; scale of 0 to 100 where 0 is no effect and 100 is complete control; 13 to 15 days
Experimental: […] At the same time, plants selected from these crop and weed species and also blackgrass (Alopecurus myosuroides), wheat (Triticum aestivum) and wild oat (Avena fatua) were treated with postemergence applications of test chemicals formulated in the same manner. […] Treated plants and controls were maintained in a greenhouse for 13 to 15 days, after which time all species were compared to controls and visually evaluated. […]
measure: Plant response rating, Lambsquarters

> print(dat)
                                    molecule                               measure  recorded.number
 1  COc1ccn(C2CCN(c3cccc(C(F)(F)F)c3)C2=O)n1 (stereo not shown) [Compound 60]  Plant response rating, Lambsquarters                0
 2  CC(C)(C)c1ccn(C2CCN(c3ccc(Cl)c(Br)c3)C2=O)n1 (stereo not shown) [Compound 56]  Plant response rating, Lambsquarters              100
 3  CCCCC(C)c1ccn(C2SCN(c3cccc(C(F)(F)F)c3)C2=O)n1 (stereo not shown) [Compound 103]  Plant response rating, Lambsquarters              100
 4  CCC(CC)c1ccn(C2CCN(c3ccc(Br)c(OC)c3)C2=O)n1 (stereo not shown) [Compound 143]  Plant response rating, Lambsquarters              100
 5  CC(C)(C)c1ccn(C2CCN(c3cccc(OC(=O)C(F)(F)F)c3)C2=O)n1 (stereo not shown) [Compound 94]  Plant response rating, Lambsquarters                0
 6  COc1cc(N2CCC(n3ccc(C(C)(C)C)n3)C2=O)ccc1Br (stereo not shown) [Compound 141]  Plant response rating, Lambsquarters              100
 7  CCC(CC)c1ccn(C2OCN(c3cccc(OC(F)F)c3)C2=O)n1 (stereo not shown) [Compound 131]  Plant response rating, Lambsquarters              100
 8  O=C1C(n2ccc(C3CCCCC3)n2)SCN1c1cccc(OC(F)(F)F)c1 (stereo not shown) [Compound 50]  Plant response rating, Lambsquarters                0
 9  CCCOC(=O)c1cccc(N2CCC(n3ccc(C(C)(C)C)n3)C2=O)c1 (stereo not shown) [Compound 123]  Plant response rating, Lambsquarters                0
10  Cc1ccc(N2CCC(n3ccc(C(C)(C)C)n3)C2=O)cc1OC(F)F (stereo not shown) [Compound 79]  Plant response rating, Lambsquarters              100
11  CCCC(C)c1ccn(C2CCN(c3cccc(C(F)(F)F)c3)C2=O)n1 (stereo not shown) [Compound 100]  Plant response rating, Lambsquarters              100
12  CC(C)(C)c1ccn(C2CCN(c3cccc([S+]([O-])C(F)(F)F)c3)C2=O)n1 (stereo not shown) [Compound 101]  Plant response rating, Lambsquarters              100
13  CCC(C)c1ccn(C2CCN(c3ccc(Cl)c(OC)c3)C2=O)n1 (stereo not shown) [Compound 119]  Plant response rating, Lambsquarters              100

---

Recorded Plant response rating, Barnyardgrass, one value per entry.
System: barnyardgrass (Echinochloa crus-galli)
Test: Test C flooded paddy test
Format: in vivo
Conditions: flooded paddy test, Rate 62 g/ha; scale 0 to 100 (0 no effect, 100 complete control)
measure: Plant response rating, Barnyardgrass

> print(dat)
                                   molecule                               measure  recorded.number
1  CCC(C)c1ccn(C2CCN(c3cccc(OC(C)C)c3)C2=O)n1 (centres unmarked) [Compound 83]  Plant response rating, Barnyardgrass               60
2  CCCCC(CCCC)c1ccn(C2OCN(c3cccc(OC(F)(F)F)c3)C2=O)n1 (centres unmarked) [Compound 113]  Plant response rating, Barnyardgrass                0
3  CCC(C)c1ccn(C2SCN(c3cccc(C(F)(F)F)c3)C2=O)n1 (centres unmarked) [Compound 20]  Plant response rating, Barnyardgrass               70
4  O=C1C(n2ccc(C3CCC3)n2)SCN1c1cccc(OC(F)F)c1 (centres unmarked) [Compound 45]  Plant response rating, Barnyardgrass               70
5  CCCCC(CCCC)c1ccn(C2OCN(c3cccc(C(F)(F)F)c3)C2=O)n1 (centres unmarked) [Compound 114]  Plant response rating, Barnyardgrass                0

---

Consider the following compounds and their measured Plant response rating, Crabgrass readings.
Test system: crabgrass (Digitaria sanguinalis)
Test: Test B preemergence
Format: in vivo
Conditions: Preemergence, Rate 500 g/ha; scale 0 to 100, 0 no effect, 100 complete control
measure: Plant response rating, Crabgrass

> print(dat)
                                    compound                      target.system  recorded.number
 1  O=C1C(n2cccn2)CCN1c1cccc(C(F)(F)F)c1 (stereo not drawn)  crabgrass (Digitaria sanguinalis)                0
 2  COc1cc(OC)cc(N2CCC(n3ccc(C(C)(C)C)n3)C2=O)c1 (stereo not drawn)  crabgrass (Digitaria sanguinalis)              100
 3  O=C1C(n2ccc(C3CC3)n2)OCN1c1cccc(C(F)(F)F)c1 (stereo not drawn)  crabgrass (Digitaria sanguinalis)              100
 4  CCC(C)Oc1ccn(C2CCN(c3cccc(C(F)(F)F)c3)C2=O)n1 (stereo not drawn)  crabgrass (Digitaria sanguinalis)               80
 5  CC(C)(C)c1ccn(C2C(=O)N(c3cccc(C(F)(F)F)c3)C[S+]2[O-])n1 (stereo not drawn)  crabgrass (Digitaria sanguinalis)                0
 6  CC1(c2ccn(C3OCN(c4cccc(OC(F)(F)F)c4)C3=O)n2)CC1 (stereo not drawn)  crabgrass (Digitaria sanguinalis)                0
 7  CCCC(C)c1ccn(C2CCN(c3cccc(OCC)c3)C2=O)n1 (stereo not drawn)  crabgrass (Digitaria sanguinalis)              100
 8  CC(C)(C)c1ccn(C2CCN(c3ccc(F)c(C(F)(F)F)c3)C2=O)n1 (stereo not drawn)  crabgrass (Digitaria sanguinalis)              100
 9  CCC(C)c1ccn(C2CCN(c3ccc(C)c(OC)c3)C2=O)n1 (stereo not drawn)  crabgrass (Digitaria sanguinalis)              100
10  CC(C)(C)c1ccn(C2SCN(c3cccc(OC(F)F)c3)C2=O)n1 (stereo not drawn)  crabgrass (Digitaria sanguinalis)              100
11  COc1cc(C)nc(N2CCC(n3ccc(C(C)(C)C)n3)C2=O)n1 (stereo not drawn)  crabgrass (Digitaria sanguinalis)               80
12  Cc1ccnc(N2CCC(n3ccc(C(C)(C)C)n3)C2=O)c1 (stereo not drawn)  crabgrass (Digitaria sanguinalis)                0

Ref: patent US7138361B2
